Numbers sourced from BindingDB's records for doi:10.1021/jm970059p.

Reported pIC50 by item:
Experiment: Inhibition of [3H]-TCP binding to PCP receptor obtained from tissue homogenate preparation of fresh whole rat brain minus cerebellum
pIC50: −log10 of the molar value.
ASSAY METRIC: pIC50

compound="c1ccc2c(c1)C1CCCCC21N1CCCCC1 (stereo not drawn)" assay_metric=pIC50 readout_value=5.37
compound="c1ccc2c(c1)C1CCC2(N2CCCCC2)C1 (stereo not drawn)" assay_metric=pIC50 readout_value=3.97
compound=c1ccc2c(c1)C1CCC2(N2CCCCC2)CC1 assay_metric=pIC50 readout_value=3.93
